The reader will find reported target mRNA knockdown values listed item by item below.
conditions: siRNA; also: test system not given here
HELM strings list units from the 5' end as sugar, base in round brackets, then linkage (d deoxyribose, r ribose, m 2'-O-methyl, p phosphodiester). Strings are as the collection lists them, not checked against the first reports. ss, as = sense and antisense strand; [fl2r] = 2'-fluoro
Entry rule: numbers only, all in %.

The following substances have reported results that may help.
RNA1{m(G)p.r(U)p.m(C)p.r(U)p.m(A)p.r(U)p.m(G)p.r(C)p.m(C)p.r(A)p.m(A)p.r(G)p.m(A)p.r(A)p.m(G)p.r(G)p.m(G)p.r(A)p.m(G)p.r(T)p.r(T)}|RNA2{r(C)p.r(U)p.r(C)p.r(C)p.r(C)p.r(U)p.r(U)p.r(C)p.r(U)p.r(U)p.r(G)p.r(G)p.r(C)p.r(A)p.r(U)p.r(A)p.r(G)p.r(A)p.r(C)p.r(T)p.r(T)}$$$RNA1{StrandType:ss}|RNA2{StrandType:as}$ ... 24
RNA1{r(G)p.r(G)p.r(G)p.r(A)p.r(G)p.r(G)p.r(A)p.r(U)p.r(G)p.r(A)p.r(C)p.r(A)p.r(A)p.r(A)p.r(G)p.r(A)p.r(A)p.r(G)p.r(C)p.r(T)p.r(T)}|RNA2{r(G)p.[fl2r](C)p.r(U)p.r(U)p.[fl2r](C)p.r(U)p.r(U)p.r(U)p.r(G)p.r(U)p.[fl2r](C)p.r(A)p.r(U)p.[fl2r](C)p.[fl2r](C)p.r(U)p.[fl2r](C)p.[fl2r](C)p.[fl2r](C)p.r(T)p.r(T)}$$$RNA1{StrandType:ss}|RNA2{StrandType:as}$ ... 37

Task: Return target mRNA knockdown (reported value) for this substance: RNA1{r(G)p.r(A)p.r(A)p.r(G)p.r(G)p.r(G)p.r(G)p.r(A)p.r(A)p.r(A)p.r(U)p.r(C)p.m(U)p.m(G)p.m(U)p.m(G)p.r(G)p.r(U)p.r(U)p.r(T)p.r(T)}|RNA2{r(A)p.r(A)p.r(C)p.m(C)p.m(A)p.m(C)p.m(A)p.r(G)p.r(A)p.r(U)p.r(U)p.r(U)p.r(C)p.r(C)p.r(C)p.r(C)p.r(U)p.r(U)p.r(C)p.r(T)p.r(T)}$$$RNA1{StrandType:ss}|RNA2{StrandType:as}$
Result: 61
